Kindly supply the reported pIC50 values for the records listed here.
Subject Of Test: UniProtKB P32249
Sequence (P32249 whole entry): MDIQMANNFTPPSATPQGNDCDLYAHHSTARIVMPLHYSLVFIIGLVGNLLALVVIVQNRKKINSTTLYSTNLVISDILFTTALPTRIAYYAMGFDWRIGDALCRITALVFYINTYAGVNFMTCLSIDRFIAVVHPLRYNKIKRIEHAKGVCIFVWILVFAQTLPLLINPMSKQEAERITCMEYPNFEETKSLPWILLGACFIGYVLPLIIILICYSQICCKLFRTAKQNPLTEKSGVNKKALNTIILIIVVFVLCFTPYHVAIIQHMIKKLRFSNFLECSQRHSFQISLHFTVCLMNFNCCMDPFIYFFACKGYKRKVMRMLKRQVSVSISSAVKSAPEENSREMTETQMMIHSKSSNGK
Test Summary: Cell-based luminescent assay of EBI2 modulation (7a,25-OHC stimulated)
Particulars: 7a,25-OHC final assay concentration 80 nM, 60 minute incubation
pIC50: −log10 of the molar value.

>>> print(df.to_string())
                                smiles_text        result
0  O=C(C#Cc1ccc(F)cc1)N1CCC2(CC1)CN(C(=O)c1ccc(C(F)(F)F)cc1)C2        > 7.00
1  O=C(/C=C/c1ccc(Br)cc1)N1CCC2(CC1)CN(Cc1ccc(Cl)cc1)C2        > 7.00
2  O=C(/C=C/c1ccc(Cl)c(Cl)c1)N1CC2(CCN(C(=O)c3ccc(-c4nnn[nH]4)cc3)CC2)C1  5.30 to 6.30
3  O=C(/C=C/c1ccc(Br)cc1)N1CC2(CCN(C(=O)c3ccc(F)c(C(F)(F)F)c3)CC2)C1        > 7.00
4  O=C(c1ccc(F)cc1)N1CC2(CCN(C(=O)c3cc4cc(Cl)ccc4[nH]3)CC2)C1        > 7.00

Return reported pIC50 values for all items listed beneath this line.
1. O=C(C#Cc1ccc(F)cc1)N1CC2(CCN(C(=O)c3ccc(F)cc3)CC2)C1
2. O=C(c1ccc(F)cc1)N1CCC2(CC1)CN(C(=O)c1cc3cc(Cl)ccc3[nH]1)C2
3. O=C(/C=C/c1ccc(Br)cc1)N1CC2(CCN(C(=O)c3ccc(F)cc3C(F)(F)F)CC2)C1

Response line:
1: 5.30 to 6.30; 2: 6.30 to 7.00; 3: > 7.00
